tested on: ATP; assay: switch fluorescence ratio, 500 uM ATP over buffer (Cy3 cluster intensity, sum of 5 cycles each) (fold (ratio)); higher = stronger signal-on switching upon ATP binding; sequences stand for … in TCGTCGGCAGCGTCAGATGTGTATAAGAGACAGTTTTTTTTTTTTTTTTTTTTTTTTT…TC; conditions: aptamer strand: ATP DNA aptamer (quencher-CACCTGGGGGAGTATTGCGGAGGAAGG + anchor), 100 nM annealed; ATP concentration: 500 uM;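 also: ATP exposure 15 min at 22 °C before imaging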
Label true when switch fluorescence ratio is at or above 1; otherwise label false.

# CHAIN, ANSWER LABEL
data = [
    ("TACCGGGTCT", "true"),
    ("ATGTTGTGTT", "false"),
    ("CTCTTTGGAC", "true"),
    ("ATATACTACA", "true"),
    ("GGTGACGCAC", "true"),
    ("TGGGTTAGGC", "false"),
    ("CGTATTAGGT", "false"),
    ("AGGAGGAGTA", "false"),
    ("CGCTGGGGAT", "true"),
    ("ACGGGGGGGA", "true"),
    ("TCGCAAAATT", "true"),
    ("TGACGCAGGT", "true"),
    ("GGGGTCGACG", "true"),
    ("AACAAAACAA", "true"),
    ("TCGTGAAGCG", "true"),
]

---

Each entry below lists one item and its recorded switch fluorescence ratio value.
test system: ATP; experiment: switch fluorescence ratio, 500 uM ATP over buffer (Cy3 cluster intensity, sum of 5 cycles each) (fold (ratio)); higher = stronger signal-on switching upon ATP binding; sequences stand for … in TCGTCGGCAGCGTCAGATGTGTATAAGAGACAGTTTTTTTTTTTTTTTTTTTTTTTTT…TC; details: aptamer strand: ATP DNA aptamer (quencher-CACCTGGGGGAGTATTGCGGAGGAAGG + anchor), 100 nM annealed; ATP concentration: 500 uM;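 also: ATP exposure 15 min at 22 °C before imaging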
PARAMETER MEASURED: switch fluorescence ratio

# CHAIN, VALUE
data = [
    ("GCCGAATCTG", 1),
    ("TAAGAATGGG", 0.997),
    ("TTGGACTCGG", 0.997),
    ("GCAGGGGGTT", 1),
    ("GCGAGAATAT", 1.03),
    ("TTGGGCTTAT", 1),
    ("CACTGATCCT", 1.03),
    ("CCGCGTACGG", 2.03),
    ("TCTTATTCAA", 0.98),
    ("GGATTACGTA", 1.04),
    ("TTTGGATCCT", 1.02),
    ("CGACTAGGAA", 1.04),
    ("AAAAGTTGGG", 1.01),
    ("AAGAGGCGGA", 1),
    ("ATATGTAAAC", 1),
    ("TTTTTACTGG", 1),
    ("AATCGCGGTA", 1.05),
    ("TGCCCCACGT", 1.17),
    ("CCAGTCATGA", 1.01),
    ("AATGTTTGTA", 0.994),
    ("AATCATTAGC", 0.985),
    ("CATCTAGTGC", 1.05),
    ("TTTTCAAGAC", 1.31),
    ("TGGTTCTGTT", 0.975),
    ("TTTTGTGAAA", 0.997),
    ("TTGTCCCCGG", 1.58),
    ("CGGGAACTCG", 1.01),
    ("GTTAGGTTTT", 1),
    ("TGCTTTACGG", 1.01),
    ("CATGGGTCCT", 1.04),
    ("TGGTTATGAA", 0.998),
    ("ATGTAGAAGG", 1),
    ("ATAGCATGTT", 1),
    ("TAATAATCAA", 1.02),
    ("GGGATTTATA", 0.995),
    ("TTGATTTTAA", 1),
    ("CGGGTGAGTT", 1.15),
    ("AATTATTGTA", 0.979),
    ("ATACATTTGG", 0.999),
    ("TGCCCATAGT", 1.01),
    ("AACAGATCTG", 1.02),
    ("TGGGTTTGTT", 0.986),
    ("TTGGCGAGTT", 1.01),
]
